Source of measurements: patent US20230271969A1

# assayInfo: Pharmacokinetic assay in SD rats (plasma and brain tissue)
# Format: in vivo
# conditionDescription: rat, po; Brain, male SD rats, p.o. 5 mg/kg; read-out: Plasma concentration Cmax
reportedProperty: Cmax (ng/mL)

compound: C[C@@H]1c2nnc(-c3nc4cnc(Cl)cc4s3)n2CCN1C(=O)c1ccc(F)cc1 [Example 37]
measuredResult: 1640
--
compound: [2H]c1cc(C(=O)N2CCn3c(-c4nc(Cl)ns4)nnc3[C@H]2C)ccc1F [Example 56]
measuredResult: 798
--
compound: C[C@@H]1c2nnc(-c3nc(Cl)ns3)n2CCN1C(=O)c1ccc(Cl)cc1 [Example 57]
measuredResult: 670
--
compound: C[C@@H]1c2nnc(-c3nc4cc(F)c(F)cc4s3)n2CCN1C(=O)c1ccc(F)cc1 [Example 17]
measuredResult: 1120

* * *

# testedTarget: NK3 receptors (Homo sapiens)
# Construct: expressed in transfected cells
# Sequence (P29371 1-465): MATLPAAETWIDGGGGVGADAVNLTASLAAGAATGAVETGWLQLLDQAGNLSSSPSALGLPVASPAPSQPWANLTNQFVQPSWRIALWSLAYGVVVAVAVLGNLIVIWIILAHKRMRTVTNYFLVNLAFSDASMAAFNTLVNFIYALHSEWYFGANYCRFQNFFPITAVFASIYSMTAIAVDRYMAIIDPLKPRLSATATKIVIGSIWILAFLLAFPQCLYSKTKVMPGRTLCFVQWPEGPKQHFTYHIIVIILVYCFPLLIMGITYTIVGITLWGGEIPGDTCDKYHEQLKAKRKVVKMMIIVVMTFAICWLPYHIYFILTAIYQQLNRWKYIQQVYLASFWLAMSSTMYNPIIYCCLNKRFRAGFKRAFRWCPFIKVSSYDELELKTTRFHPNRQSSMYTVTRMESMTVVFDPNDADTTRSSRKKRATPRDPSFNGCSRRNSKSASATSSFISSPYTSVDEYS
# assayInfo: Antagonism of IP1 in HEK293 cells with stable expression of NK3
# Assay type: cell-based
# conditionDescription: agonist Senktide 3 nM, read-out: NK3R IC50 (nM) IP1
// classify: if (IC50 < 100 nM) TRUE else FALSE

molecule: C[C@@H]1c2nnc(-c3nc4ccccc4s3)n2CCN1C(=O)c1ccc(Cl)c(Cl)c1 [Example 4]
discreteLabel: TRUE
--
molecule: C[C@@H]1c2nnc(-c3nc4cnc(Cl)cc4s3)n2CCN1C(=O)c1ccc(F)cc1 [Example 37]
discreteLabel: TRUE
--
molecule: C[C@@H]1c2nnc(-c3nc4c(F)cc(F)cc4s3)n2CCN1C(=O)c1ccc(Cl)cc1 [Example 16]
discreteLabel: FALSE
--
molecule: C[C@@H]1c2nnc(-c3nc4cc(F)c(F)cc4s3)n2CCN1C(=O)c1ccc(F)cc1 [Example 17]
discreteLabel: TRUE
--
molecule: [2H]C([2H])([2H])N(c1nsc(-c2nnc3n2CCN(C(=O)c2ccc(F)cc2)[C@@H]3C)n1)C([2H])([2H])[2H] [Example 106]
discreteLabel: FALSE
--
molecule: [2H]c1c([2H])c(C(=O)N2CCn3c(-c4nc5ccccc5s4)nnc3[C@H]2C)c([2H])c([2H])c1F [Example 2]
discreteLabel: FALSE
--
molecule: C[C@@H]1c2nnc(-c3nc4ccc(F)cc4s3)n2CCN1C(=O)c1ccc(F)cc1 [Example 12]
discreteLabel: TRUE
--
molecule: C[C@@H]1c2nnc(-c3nc(N(C)C4CC4)ns3)n2CCN1C(=O)c1ccc(F)cc1 [Example 115]
discreteLabel: TRUE

* * *

# testedTarget: NK3 receptors (Homo sapiens, UniProt P29371)
# Construct: expressed in transfected cells
# Sequence (P29371 1-465): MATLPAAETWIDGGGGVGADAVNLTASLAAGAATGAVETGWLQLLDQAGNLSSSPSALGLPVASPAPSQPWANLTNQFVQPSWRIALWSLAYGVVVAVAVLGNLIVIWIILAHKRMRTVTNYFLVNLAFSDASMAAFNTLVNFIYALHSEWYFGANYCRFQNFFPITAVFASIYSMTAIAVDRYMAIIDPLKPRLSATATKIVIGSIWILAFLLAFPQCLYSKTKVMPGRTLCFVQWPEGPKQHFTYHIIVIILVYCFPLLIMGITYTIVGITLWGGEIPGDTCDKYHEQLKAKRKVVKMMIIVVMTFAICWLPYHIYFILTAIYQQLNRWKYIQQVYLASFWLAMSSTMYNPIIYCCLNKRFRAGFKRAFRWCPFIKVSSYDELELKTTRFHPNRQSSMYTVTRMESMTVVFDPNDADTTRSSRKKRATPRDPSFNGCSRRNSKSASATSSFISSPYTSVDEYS
# assayInfo: Calcium ion fluidity (FLIPR) in cells with stable expression of NK3 receptors
# Assay type: cell-based
# conditionDescription: calcium signal, antagonist mode, read-out: NK3R IC50 (nM) FLIPR
reportedProperty: IC50

compound: Cc1cccc2cc(-c3nnc4n3CCN(C(=O)c3ccc(Cl)c(Cl)c3)[C@@H]4C)nn12
measuredResult: 86.7 nM
--
compound: [2H]c1c([2H])c(C(=O)N2CCn3c(-c4nc5ccccc5s4)nnc3[C@H]2C)c([2H])c([2H])c1F
measuredResult: 58.2 nM
--
compound: Cc1cccc2sc(-c3nnc4n3CCN(C(=O)c3ccc(Cl)cc3)[C@@H]4C)nc12
measuredResult: 97.8 nM
--
compound: C[C@@H]1c2nnc(-c3nc(Cl)ns3)n2CCN1C(=O)c1ccc(Cl)cc1
measuredResult: 61 nM
--
compound: C[C@@H]1c2nnc(-c3nc4cnc(Cl)cc4s3)n2CCN1C(=O)c1ccc(F)cc1
measuredResult: 48.9 nM
--
compound: COc1ccc2nc(-c3nnc4n3CCN(C(=O)c3ccc(F)cc3)[C@@H]4C)sc2c1
measuredResult: 65.8 nM
--
compound: Cc1nsc(-c2nnc3n2CCN(C(=O)c2ccc(F)cc2)[C@@H]3C)n1
measuredResult: 904 nM
--
compound: C[C@@H]1c2nnc(-c3nc4ccc(C#N)cc4s3)n2CCN1C(=O)c1ccc(F)cc1
measuredResult: 123 nM
--
compound: [2H]c1cc(C(=O)N2CCn3c(-c4nc(Cl)ns4)nnc3[C@H]2C)ccc1Cl
measuredResult: 267 nM
--
compound: C[C@@H]1c2nnc(-c3nc4ccccc4s3)n2CCN1C(=O)c1ccc(-c2cccs2)cc1
measuredResult: 159 nM
--
compound: Cc1ccc2nc(-c3nnc4n3CCN(C(=O)c3ccc(Cl)cc3)[C@@H]4C)sc2c1
measuredResult: 58.4 nM
--
compound: C[C@@H]1c2nnc(-c3nc4cnc(Cl)cc4s3)n2CCN1C(=O)c1ccc(Cl)cc1
measuredResult: 156 nM
--
compound: C[C@@H]1c2nnc(-c3nc4cc(F)ccc4s3)n2CCN1C(=O)c1ccc(Cl)c(Cl)c1
measuredResult: 47.5 nM
--
compound: C[C@@H]1c2nnc(-c3nc4ccccc4s3)n2CCN1C(=O)c1ccc(Cl)cc1
measuredResult: 30.5 nM
--
compound: C[C@@H]1c2nnc(-c3nc4ccsc4s3)n2CCN1C(=O)c1ccc(Cl)c(Cl)c1
measuredResult: 255 nM
--
compound: C[C@@H]1c2nnc(-c3nc4cc(F)cc(F)c4s3)n2CCN1C(=O)c1ccc(F)cc1
measuredResult: 130 nM
--
compound: [2H]c1cc(C(=O)N2CCn3c(-c4nc5cc(Cl)c(F)cc5s4)nnc3[C@H]2C)ccc1F
measuredResult: 268 nM
--
compound: [2H]c1cc(C(=O)N2CCn3c(-c4nc5cc(F)c(F)cc5s4)nnc3[C@H]2C)ccc1Cl
measuredResult: 56.2 nM
--
compound: C[C@@H]1c2nnc(-c3nc4ccccc4s3)n2CCN1C(=O)c1ccc(F)cc1
measuredResult: 76.2 nM
--
compound: C[C@@H]1c2nnc(-c3nc4cc(F)ccc4s3)n2CCN1C(=O)c1ccc(F)cc1
measuredResult: 33.3 nM
--
compound: C[C@@H]1c2nnc(-c3cc4ccccn4n3)n2CCN1C(=O)c1ccc(Cl)c(Cl)c1
measuredResult: 107 nM
--
compound: COc1ccc2nc(-c3nnc4n3CCN(C(=O)c3ccc(Cl)c(Cl)c3)[C@@H]4C)sc2c1
measuredResult: 86.7 nM
--
compound: [2H]c1c([2H])c(C(=O)N2CCn3c(-c4nc(C([2H])([2H])[2H])ns4)nnc3[C@H]2C)c([2H])c([2H])c1F
measuredResult: 147 nM
--
compound: C[C@@H]1c2nnc(-c3nc(N(C)C)ns3)n2CCN1C(=O)c1ccc(F)cc1
measuredResult: 205 nM
--
compound: [2H]c1cc(C(=O)N2CCn3c(-c4nc5ccc(Cl)cc5s4)nnc3[C@H]2C)ccc1F
measuredResult: 27.1 nM
--
compound: C[C@@H]1c2nnc(-c3nc4ccc(F)cc4s3)n2CCN1C(=O)c1ccc(F)cc1
measuredResult: 37 nM
--
compound: [2H]c1cc(C(=O)N2CCn3c(-c4nc5cc(F)c(F)cc5s4)nnc3[C@H]2C)ccc1F
measuredResult: 73.6 nM
--
compound: [2H]c1cc(C(=O)N2CCn3c(-c4nc(Cl)ns4)nnc3[C@H]2C)ccc1F
measuredResult: 155 nM
--
compound: C[C@@H]1c2nnc(-c3nc4ccc(F)cc4s3)n2CCN1C(=O)c1ccc(Cl)c(Cl)c1
measuredResult: 97.6 nM
--
compound: COc1ccc2nc(-c3nnc4n3CCN(C(=O)c3ccc(Cl)cc3)[C@@H]4C)sc2c1
measuredResult: 47.4 nM
--
compound: C[C@@H]1c2nnc(-c3nc4ccc(Cl)cc4s3)n2CCN1C(=O)c1ccc(Cl)cc1
measuredResult: 61 nM
--
compound: C[C@@H]1c2nnc(-c3nc(Cl)ns3)n2CCN1C(=O)c1cc(F)c(F)c(F)c1
measuredResult: 183 nM
